NanoBRET Fold Response by entry:
system: MTNR1B (Homo sapiens, UniProt P49286)
Construct: purchased Promega (in-house HiBiT-GPCR construct library, NanoBRET)
Sequence (P49286 whole entry): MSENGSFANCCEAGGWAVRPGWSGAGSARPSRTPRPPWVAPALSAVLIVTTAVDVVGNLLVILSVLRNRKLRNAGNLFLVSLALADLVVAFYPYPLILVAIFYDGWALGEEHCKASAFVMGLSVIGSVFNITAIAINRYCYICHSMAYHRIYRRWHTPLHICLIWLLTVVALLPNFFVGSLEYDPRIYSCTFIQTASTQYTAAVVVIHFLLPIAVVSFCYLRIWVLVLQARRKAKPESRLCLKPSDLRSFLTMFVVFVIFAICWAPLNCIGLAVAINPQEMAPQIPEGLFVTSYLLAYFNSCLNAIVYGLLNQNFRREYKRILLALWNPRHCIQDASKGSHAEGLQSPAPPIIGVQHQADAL
assay.comment: NanoBRET screen HiBiT-MTNR1B in HEK293
Assay type: binding
condition.parameters: MTNR1B; tracer 0.1μM

Here is how some compounds turned out for NanoBRET Fold Response.
Cc1cc2c(s1)Nc1ccccc1N=C2N1CCN(CCCNC(=O)CCOCCOCCOCCOCCNC(=O)CCc2ccc3n2[B-](F)(F)[N+]2=C(c4ccc[nH]4)C=CC2=C3)CC1    0.96
CCCn1c(=O)c2[nH]c(-c3ccc(OCC(=O)NCCNC(=O)CCOCCNC(=O)c4ccc(CNC(=O)CCc5ccc6n5[B-](F)(F)[N+]5=C(c7ccc[nH]7)C=CC5=C6)cc4)cc3)nc2n(CCC)c1=O    1.07

IN: Recorded NanoBRET Fold Response of `COc1ccccc1N1CCN(CCCCN2C(=O)c3ccc(CNC(=O)CCOCCNC(=O)c4ccc(CNC(=O)CCc5ccc6n5[B-](F)(F)[N+]5=C(c7ccc[nH]7)C=CC5=C6)cc4)cc3C2=O)CC1` , please.
OUT: 1.20

IN: Recorded NanoBRET Fold Response of `O=C(CCOCCOCCOCCOCCNC(=O)CCc1ccc2n1[B-](F)(F)[N+]1=C(c3ccc[nH]3)C=CC1=C2)NCCCN1CCN(C2=Nc3ccccc3Oc3ccc(Cl)cc32)CC1` , please.
OUT: 0.44

IN: Recorded NanoBRET Fold Response of `CC(C)N(CC[C@H](c1ccccc1)c1cc(CCNC(=O)c2ccc(CNC(=O)CCc3ccc4n3[B-](F)(F)[N+]3=C(c5ccc[nH]5)C=CC3=C4)cc2)ccc1O)C(C)C` , please.
OUT: 0.97

---

system: LGR4 (Homo sapiens, UniProt Q9BXB1)
Construct: purchased Promega (in-house HiBiT-GPCR construct library, NanoBRET)
Sequence (Q9BXB1 25-951): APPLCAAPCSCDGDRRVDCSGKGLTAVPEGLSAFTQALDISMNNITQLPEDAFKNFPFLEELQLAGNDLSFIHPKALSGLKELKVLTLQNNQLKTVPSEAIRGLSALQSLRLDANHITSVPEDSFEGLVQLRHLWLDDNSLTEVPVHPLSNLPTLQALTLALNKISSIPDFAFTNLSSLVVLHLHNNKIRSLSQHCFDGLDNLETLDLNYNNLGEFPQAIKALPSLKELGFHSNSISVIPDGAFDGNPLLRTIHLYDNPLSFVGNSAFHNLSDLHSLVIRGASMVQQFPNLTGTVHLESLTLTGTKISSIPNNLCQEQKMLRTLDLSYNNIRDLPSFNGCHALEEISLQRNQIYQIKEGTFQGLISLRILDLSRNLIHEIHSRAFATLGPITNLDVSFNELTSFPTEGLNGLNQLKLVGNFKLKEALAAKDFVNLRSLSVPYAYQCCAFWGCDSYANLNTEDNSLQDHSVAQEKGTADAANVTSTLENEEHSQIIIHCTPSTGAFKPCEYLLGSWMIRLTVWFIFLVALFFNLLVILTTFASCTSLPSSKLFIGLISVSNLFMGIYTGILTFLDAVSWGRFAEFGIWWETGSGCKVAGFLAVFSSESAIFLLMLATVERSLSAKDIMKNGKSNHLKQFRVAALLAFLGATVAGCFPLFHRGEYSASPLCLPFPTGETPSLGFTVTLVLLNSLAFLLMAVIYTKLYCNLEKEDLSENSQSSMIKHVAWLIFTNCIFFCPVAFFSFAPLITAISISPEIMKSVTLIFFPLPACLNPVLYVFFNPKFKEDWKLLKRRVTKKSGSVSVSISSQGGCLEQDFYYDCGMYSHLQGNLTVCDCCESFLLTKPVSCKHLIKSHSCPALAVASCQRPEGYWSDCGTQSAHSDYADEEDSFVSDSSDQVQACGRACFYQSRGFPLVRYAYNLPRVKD
assay.comment: NanoBRET screen HiBiT-LGR4 in HEK293
Type: binding
condition.parameters: LGR4; tracer 1μM
Procedure: Each tracer candidate was screened across the entire library of HiBiT-GPCR constructs using NanoBRET as the detection modality. As depicted in Figure 4A, the specificity of interactions was evaluated through decrease in BRET due to competitive displacement of a bound tracer by excess parental compound. Each tracer was analyzed for binding to each HiBiT-GPCR fusion in the absence and in the presence of competing parental compound. […]
property.label: NanoBRET Fold Response
# output: bare number, no unit

Cc1cc2c(s1)Nc1ccccc1N=C2N1CCN(CCCNC(=O)CCOCCOCCOCCOCCNC(=O)CCc2ccc3n2[B-](F)(F)[N+]2=C(c4ccc[nH]4)C=CC2=C3)CC1    1.30
CC(C)N(CC[C@H](c1ccccc1)c1cc(CCNC(=O)CCOCCOCCOCCOCCNC(=O)CCc2ccc3n2[B-](F)(F)[N+]2=C(c4ccc[nH]4)C=CC2=C3)ccc1O)C(C)C    1.24
Cc1nc2n(c(=O)c1CCN1CCC(c3noc4cc(F)ccc34)CC1)CCCC2OC(=O)NCCOCCOCCOCCOCCNC(=O)CCc1ccc2n1[B-](F)(F)[N+]1=C(c3ccc[nH]3)C=CC1=C2 (stereo not drawn)    0.98
N#CN=C(NCCCOc1cccc(CN2CCCCC2)c1)NCCNC(=O)CCOCCOCCOCCOCCNC(=O)CCc1ccc2n1[B-](F)(F)[N+]1=C(c3ccc[nH]3)C=CC1=C2    1.02
O=C(CCc1ccc2n1[B-](F)(F)[N+]1=C(c3ccc[nH]3)C=CC1=C2)NCc1ccc(C(=O)NCCOCCC(=O)N[C@@H]2CC[C@@]3(O)[C@H]4Cc5ccc(O)c6c5[C@@]3(CCN4CC3CC3)[C@H]2O6)cc1 [Naltrexone-3-NB590]    0.87

IN: Recorded NanoBRET Fold Response of `O=C(CCOCCOCCOCCOCCNC(=O)CCc1ccc2n1[B-](F)(F)[N+]1=C(c3ccc[nH]3)C=CC1=C2)NCCCN1CCN(C2=Nc3ccccc3Oc3ccc(Cl)cc32)CC1` , please.
OUT: 1.04
